- experimental.system: transferrin, P02787
- Sequence (P02787 20-698 limits assumed): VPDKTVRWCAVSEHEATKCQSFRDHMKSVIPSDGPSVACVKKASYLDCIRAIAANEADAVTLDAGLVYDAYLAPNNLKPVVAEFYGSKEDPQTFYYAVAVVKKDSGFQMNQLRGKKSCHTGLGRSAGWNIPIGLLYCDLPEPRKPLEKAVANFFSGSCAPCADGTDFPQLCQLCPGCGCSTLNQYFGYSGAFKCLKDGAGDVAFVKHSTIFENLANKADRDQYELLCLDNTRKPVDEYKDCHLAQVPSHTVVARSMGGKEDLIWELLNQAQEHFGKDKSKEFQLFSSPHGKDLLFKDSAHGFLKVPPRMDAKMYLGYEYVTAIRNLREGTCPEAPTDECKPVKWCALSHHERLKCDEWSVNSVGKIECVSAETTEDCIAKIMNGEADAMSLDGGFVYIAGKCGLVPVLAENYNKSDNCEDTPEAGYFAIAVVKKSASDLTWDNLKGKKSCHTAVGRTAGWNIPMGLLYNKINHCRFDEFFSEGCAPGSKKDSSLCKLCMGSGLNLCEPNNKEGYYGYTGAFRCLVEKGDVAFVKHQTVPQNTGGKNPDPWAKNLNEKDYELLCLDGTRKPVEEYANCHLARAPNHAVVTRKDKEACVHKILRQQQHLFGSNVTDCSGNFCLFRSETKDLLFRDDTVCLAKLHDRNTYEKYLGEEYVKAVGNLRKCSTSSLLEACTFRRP
- procedure.details: SPR, transferrin immobilized, Kd from kinetics
property.measured: Kd (nM)

binder	property.measured	result.units	observed.measurement
SYN23-26 (designed binder, not fully specified; C-terminal glycine joined to one of the two amines (alpha or epsilon) of a lysine linker; chain 1 pos 20 and chain 2 pos 20: the C-terminal Gly of each 20-mer is joined to the alpha or the epsilon amine of one branching lysine (about 1 nm spacing). The lysine is followed by a C-terminal cysteine whose thiol is biotinylated for the array. The Lys-Cys core is left out of the …) peptide 1: FRGWAHIFFGPHVIYRGGSG peptide 2: AHKVVPQRQIRHAYNRYGSG	Kd	nM	150
